- Test system: DBC adults
- ASSAY NOTES: Y-tube olfactometer behavioral response
- Assay type: in vivo, Holotrichia parallela
- PARTICULARS: females, 1 μg/μl, T/(T+C), in Figure 6; letters mark significance
Assignment: determine reported Selective response rate (%), Female for the given compounds.

As a guide, the following entries are already answered.
{"STRUCTURE": "C=C1CC/C=C(\\C)CC[C@@H]2[C@@H]1CC2(C)C", "Selective response rate (%), Female": "48%"}
{"STRUCTURE": "COC(=O)[C@@H](N)CC(C)C.Cl", "Selective response rate (%), Female": "0.20c %"}

Hi, could you look up Selective response rate (%), Female for each item in my list?
1. CC1=CC[C@H](C(C)C)C=C1
2. CCCCCCCCCCCCCCC

Response:
["51%", "67%"]
